Target: PI3Kδ (Homo sapiens)
Sequence (O00329 1-1044): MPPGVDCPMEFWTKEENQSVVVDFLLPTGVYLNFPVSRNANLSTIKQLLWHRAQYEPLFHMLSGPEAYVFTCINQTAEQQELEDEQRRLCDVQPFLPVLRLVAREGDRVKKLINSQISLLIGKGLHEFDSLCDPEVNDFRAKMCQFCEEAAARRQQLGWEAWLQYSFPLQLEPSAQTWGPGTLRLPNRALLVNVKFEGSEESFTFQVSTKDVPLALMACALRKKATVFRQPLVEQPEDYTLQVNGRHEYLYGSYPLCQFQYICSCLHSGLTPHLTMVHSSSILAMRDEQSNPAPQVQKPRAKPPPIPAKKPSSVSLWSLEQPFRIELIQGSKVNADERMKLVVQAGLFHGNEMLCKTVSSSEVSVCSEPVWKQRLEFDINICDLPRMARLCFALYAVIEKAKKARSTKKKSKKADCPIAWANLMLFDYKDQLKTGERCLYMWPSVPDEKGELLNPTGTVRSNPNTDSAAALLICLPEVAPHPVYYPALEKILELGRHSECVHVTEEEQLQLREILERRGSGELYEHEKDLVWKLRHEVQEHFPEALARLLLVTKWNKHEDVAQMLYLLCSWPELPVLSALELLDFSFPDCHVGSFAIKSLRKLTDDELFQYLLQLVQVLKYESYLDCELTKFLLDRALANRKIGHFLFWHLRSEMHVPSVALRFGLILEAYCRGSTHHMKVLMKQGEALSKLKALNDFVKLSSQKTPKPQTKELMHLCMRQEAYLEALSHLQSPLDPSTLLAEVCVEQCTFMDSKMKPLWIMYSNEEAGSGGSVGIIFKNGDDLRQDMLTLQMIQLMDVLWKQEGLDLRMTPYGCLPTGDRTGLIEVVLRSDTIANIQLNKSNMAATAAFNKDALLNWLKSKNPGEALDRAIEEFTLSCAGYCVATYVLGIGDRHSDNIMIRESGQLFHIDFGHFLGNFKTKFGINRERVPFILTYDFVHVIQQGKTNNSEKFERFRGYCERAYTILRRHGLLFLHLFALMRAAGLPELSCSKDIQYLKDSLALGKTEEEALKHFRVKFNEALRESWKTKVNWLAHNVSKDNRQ
So basically, if Kd comes in under 300 nM it's condition met, and if it's 300 nM or more it's condition not met.

Illustrative cases are given below, each with its answer.
O=C(c1cc(C2CCCN2c2cc(F)cc(F)c2)c2nc(N3CCOCC3)cnc2c1)N1CCS(=O)(=O)CC1 (single isomer, unassigned) [Compound 38] :: condition met
CC(Nc1cc(F)c(F)c(F)c1)c1cc(C(=O)NCC(C)(C)O)cc2ncc(N3CCOCC3)nc12 (centres unmarked) [Compound 292] :: condition not met
CNCCOCCN(C)C(=O)c1cc(C(C)Nc2ccc(F)c(F)c2)c2nc(N3CCOCC3)cnc2c1 (single isomer, unassigned) [Compound 345a] :: condition met
CC(Oc1ccc(F)c(F)c1)c1cc(C(=O)N2CC[C@H](N(C)C)C2)cc2ncc(N3CCOCC3)nc12 (single isomer, unassigned) [Compound 363b] :: condition not met

Bench note: check whether CN(Cc1cc(F)cc(F)c1)c1cc(C(=O)N2CCNC(C(F)(F)F)C2)cc2ncc(N3CCOCC3)nc12 (single isomer, unassigned) [Compound 319a] shows Kd below 300 nM
condition not met

Bench note: check whether CN(C)C(=O)c1cc(C2CCCN2c2cc(F)cc(F)c2)c2nc(N3CCOCC3)cnc2c1 (centres unmarked) [Compound 26] shows Kd below 300 nM
condition met
